Data credit: patent US20190359693A1

- assayed system: hemagglutinin (HA) of influenza virus H3N2 A/Brisbane/10/07 (influenza A virus)
- test method notes: cell-based or functional assay
measured endpoint: average neutralization titer (nM)

• MD2310 (bispecific antibody) EVQLVESGGGLVQPGGSLRLSCAATGFTLENKAIGWFRQTPGSEREGVLCISKSGSWTYYTDSMRGRFTISRDNAENTVYLQMDSLKPEDTAVYYCATTTAGGGLCWDGTTFSRLASSWGQGTQVTVSSGGGGSGGGGSEVQLVESGGGLVQAGDSLRLSCAASGPTFGMSAMGWFRQAPGKEREFVAAISGLGNPNYSDDVKGRFTISRENGRNTVYLQMNSLKPEDTAVYYCAQRKVYHVQGGDRPQAYDYWGQGTQVTVSSGGGGSGGGGSEVQLVESGGGLVQAGDSLRISCAASGRTLSIYSMGWFRQAPGKEREFVATIGWNSGRTFYPDSLKGRFTISRDNARNTLYLQMNNLRPEDTAVYYCAAAKGPLRLSSQADYWGQGTQVTVSS = 25.5
• MD2313 (bispecific antibody) EVQLVESGGGLVQAGDSLRISCAASGRTLSIYSMGWFRQAPGKEREFVATIGWNSGRTFYPDSLKGRFTISRDNARNTLYLQMNNLRPEDTAVYYCAAAKGPLRLSSQADYWGQGTQVTVSSGGGGSGGGGSEVQLVESGGGLVQAGDSLRISCAASGRTLSIYSMGWFRQAPGKEREFVATIGWNSGRTFYPDSLKGRFTISRDNARNTLYLQMNNLRPEDTAVYYCAAAKGPLRLSSQADYWGQGTQVTVSSGGGGSGGGGSEVQLVESGGGLVQPGGSLRLSCAATGFTLENKAIGWFRQTPGSEREGVLCISKSGSWTYYTDSMRGRFTISRDNAENTVYLQMDSLKPEDTAVYYCATTTAGGGLCWDGTTFSRLASSWGQGTQVTVSS = 7.7
